study_target: UniProt Q96RI1
Sequence (Q96RI1 262-486 limits assumed): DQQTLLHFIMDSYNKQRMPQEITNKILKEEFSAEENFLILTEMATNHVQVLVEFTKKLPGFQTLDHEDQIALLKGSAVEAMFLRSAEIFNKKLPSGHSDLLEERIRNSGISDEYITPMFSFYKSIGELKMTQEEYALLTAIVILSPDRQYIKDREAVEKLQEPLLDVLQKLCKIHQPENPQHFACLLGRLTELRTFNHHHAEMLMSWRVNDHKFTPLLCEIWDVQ
method_summary: FXR TR-FRET binding assay (DY246 fluorescent probe)
run_conditions: at 4.4 μM; read-out: FXR TR-FRET Binding % Inh.
So I've got a bunch of compounds here, and I need their inhibition at 4.4 µM values.
A number alone suffices; assume %.

Q: Need inhibition at 4.4 µM, item Cc1ccc(NC(=O)c2cn(C(C)C)nc2-c2ccc(C(F)(F)F)cc2)cc1S(=O)(=O)N1CCOCC1 [Compound 4p]
Result: 133

Q: Need inhibition at 4.4 µM, item Cc1ccc(-c2nn(C(C)C)cc2C(=O)Nc2ccc(C)c(S(=O)(=O)N3CCOCC3)c2)cc1 [Compound 4f]
Result: 131

Q: Need inhibition at 4.4 µM, item COc1cccc(Cn2cc(CNc3ccc(C)c(S(=O)(=O)N4CCOCC4)c3)c(C(C)C)n2)c1 [Compound 9-2]
Result: 72.5

Q: Need inhibition at 4.4 µM, item COc1cccc(Cn2cc(C(=O)Nc3ccc(C)c(S(=O)(=O)N4CCOCC4)c3)c(C(C)C)n2)c1 [Compound 4m]
Result: 101
